# target desc: PDE1A (Homo sapiens, UniProt P54750)
# Sequence (P54750 whole entry): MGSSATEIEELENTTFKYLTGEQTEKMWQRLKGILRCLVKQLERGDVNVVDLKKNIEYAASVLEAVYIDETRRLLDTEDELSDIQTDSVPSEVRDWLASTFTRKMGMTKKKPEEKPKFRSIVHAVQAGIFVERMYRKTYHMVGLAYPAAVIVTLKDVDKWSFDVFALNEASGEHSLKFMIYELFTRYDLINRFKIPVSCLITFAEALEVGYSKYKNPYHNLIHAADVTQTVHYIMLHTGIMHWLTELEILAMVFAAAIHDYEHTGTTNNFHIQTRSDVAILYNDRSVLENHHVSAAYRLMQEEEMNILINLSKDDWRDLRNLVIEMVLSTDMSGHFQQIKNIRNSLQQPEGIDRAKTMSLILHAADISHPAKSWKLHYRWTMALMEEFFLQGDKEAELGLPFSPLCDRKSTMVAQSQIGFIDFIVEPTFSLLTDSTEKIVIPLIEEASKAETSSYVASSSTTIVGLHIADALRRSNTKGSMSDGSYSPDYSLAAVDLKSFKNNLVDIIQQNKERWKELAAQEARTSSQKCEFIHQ
# assay text: PDE1 inhibition assay (SPA), PDE1A
# Assay type: biochemical
# experimental context: concentration required to reach 50% inhibition of the enzyme; 15 nM tritium labelled cAMP; read-out: PDE1A inhibition (nM or %): IC50
Reported values of IC50 for individual entries
measured property: IC50 (nM)

molecule: O=c1c2nnc(C3CCCCO3)n2ccn1Cc1cccc(F)c1 (single isomer, unassigned)
assay value: 3200
//
molecule: CCCc1nnc2c(=O)n(Cc3ccccc3)ccn12
assay value: 770
//
molecule: Cc1ccc(Cc2cn3c(C4CCOCC4)nnc3c(=O)n2CC2CCCCCC2)cc1
assay value: 0.86
//
molecule: CCCc1nnc2c(=O)n(CC3CCCCC3C)ccn12 (mixture of isomers)
assay value: 320
//
molecule: CCCc1nnc2c(=O)n(Cc3ccc(F)cc3)ccn12
assay value: 970

###

# target desc: PDE1B (Homo sapiens, UniProt Q01064)
# Sequence (Q01064 whole entry): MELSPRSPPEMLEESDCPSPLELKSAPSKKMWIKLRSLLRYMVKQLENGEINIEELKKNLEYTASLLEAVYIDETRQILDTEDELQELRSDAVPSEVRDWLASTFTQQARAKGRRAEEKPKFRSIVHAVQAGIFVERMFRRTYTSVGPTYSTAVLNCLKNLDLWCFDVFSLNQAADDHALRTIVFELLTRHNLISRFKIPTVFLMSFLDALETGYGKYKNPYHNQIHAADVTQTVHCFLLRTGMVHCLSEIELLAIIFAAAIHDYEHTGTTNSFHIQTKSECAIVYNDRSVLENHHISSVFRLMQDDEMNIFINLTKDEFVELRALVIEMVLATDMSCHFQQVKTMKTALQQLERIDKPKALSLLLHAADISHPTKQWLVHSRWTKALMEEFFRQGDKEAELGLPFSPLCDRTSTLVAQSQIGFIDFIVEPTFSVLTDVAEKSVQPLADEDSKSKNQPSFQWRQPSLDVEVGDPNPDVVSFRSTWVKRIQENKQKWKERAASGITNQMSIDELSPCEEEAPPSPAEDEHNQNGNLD
# assay text: PDE1 inhibition assay (SPA), PDE1B
# Assay type: biochemical
# experimental context: concentration required to reach 50% inhibition of the enzyme; 15 nM tritium labelled cAMP; read-out: PDE1B inhibition (nM or %): IC50
measured property: IC50 (nM)

molecule: O=c1c2nnc(C3CCOC3)n2ccn1Cc1ccc(Cl)cc1 (stereo not drawn)
target desc: PDE1B (Homo sapiens, UniProt Q01064)
unit of measurement: nM
assay value: 840
//
molecule: CCCc1nnc2c(=O)n(CC3C4CC5CC(C4)CC3C5)ccn12 (stereo not drawn)
target desc: PDE1B (Homo sapiens, UniProt Q01064)
unit of measurement: nM
assay value: 210
//
molecule: O=c1c2nnc(C3CCOCC3)n2cc(Cc2ccc(-c3ccccc3)cc2)n1CC1CCCCC1
target desc: PDE1B (Homo sapiens, UniProt Q01064)
unit of measurement: nM
assay value: 0.17
//
molecule: CCCc1nnc2c(=O)n(Cc3cccc(F)c3)cc(Br)n12
target desc: PDE1B (Homo sapiens, UniProt Q01064)
unit of measurement: nM
assay value: 180
//
molecule: CCCCCCn1ccn2c(C3CCOCC3)nnc2c1=O
target desc: PDE1B (Homo sapiens, UniProt Q01064)
unit of measurement: nM
assay value: 1000
//
molecule: O=c1c2nnc(C3CCOCC3)n2ccn1Cc1cccc(F)c1
target desc: PDE1B (Homo sapiens, UniProt Q01064)
unit of measurement: nM
assay value: 680
//
molecule: O=c1c2nnc(C3COC3)n2ccn1Cc1cccc(F)c1
target desc: PDE1B (Homo sapiens, UniProt Q01064)
unit of measurement: nM
assay value: 7200
//
molecule: O=c1c2nnc(C3CCOCC3)n2cc(Cc2cccc(F)c2)n1CC1CCCCC1
target desc: PDE1B (Homo sapiens, UniProt Q01064)
unit of measurement: nM
assay value: 22
//
molecule: CCCc1nnc2c(=O)n(CC3CCC(C)CC3)ccn12 (single isomer, unassigned)
target desc: PDE1B (Homo sapiens, UniProt Q01064)
unit of measurement: nM
assay value: 24
//
molecule: CCCc1nnc2c(=O)n(CC3CCC(F)(F)CC3)ccn12
target desc: PDE1B (Homo sapiens, UniProt Q01064)
unit of measurement: nM
assay value: 420
//
molecule: CCCc1nnc2c(=O)n(Cc3ccccc3)ccn12
target desc: PDE1B (Homo sapiens, UniProt Q01064)
unit of measurement: nM
assay value: 400
//
molecule: O=c1c2nnc(C3CCCC3)n2ccn1Cc1cccc(F)c1
target desc: PDE1B (Homo sapiens, UniProt Q01064)
unit of measurement: nM
assay value: 290
//
molecule: CC(F)(F)c1nnc2c(=O)n(Cc3cccc(F)c3)ccn12
target desc: PDE1B (Homo sapiens, UniProt Q01064)
unit of measurement: nM
assay value: 2700
//
molecule: O=c1c2nnc(C3CCOCC3)n2cc(Br)n1CC1CCCC1
target desc: PDE1B (Homo sapiens, UniProt Q01064)
unit of measurement: nM
assay value: 140
//
molecule: O=c1c2nnc(C3CCOCC3)n2cc(Br)n1CC1CCCCCC1
target desc: PDE1B (Homo sapiens, UniProt Q01064)
unit of measurement: nM
assay value: 4
//
molecule: CCCc1nnc2c(=O)n(Cc3cccc(F)c3)cc([C@@H]3CCOC3)n12 (single isomer, unassigned)
target desc: PDE1B (Homo sapiens, UniProt Q01064)
unit of measurement: nM
assay value: 1000
//
molecule: CCCc1nnc2c(=O)n(Cc3ccc(OC)cc3)c(C)cn12
target desc: PDE1B (Homo sapiens, UniProt Q01064)
unit of measurement: nM
assay value: 32
//
molecule: CCCc1nnc2c(=O)n(Cc3cccc(F)c3)c(Br)cn12
target desc: PDE1B (Homo sapiens, UniProt Q01064)
unit of measurement: nM
assay value: 99
//
molecule: CCCc1nnc2c(=O)n(Cc3cccc(F)c3)c(CC)cn12
target desc: PDE1B (Homo sapiens, UniProt Q01064)
unit of measurement: nM
assay value: 180
//
molecule: CCCc1nnc2c(=O)n(Cc3cccc(F)c3)c([C@@H]3CCOC3)cn12 (single isomer, unassigned)
target desc: PDE1B (Homo sapiens, UniProt Q01064)
unit of measurement: nM
assay value: 1100
//
molecule: O=c1c2nnc(C3CCOCC3)n2cc(Cc2ccccc2)n1Cc1cccc(F)c1
target desc: PDE1B (Homo sapiens, UniProt Q01064)
unit of measurement: nM
assay value: 18

Source of measurements: patent US10150771B2
